- System: PBMC
- Test settings: 12.5 µM
Measured property: Average (percentage cell inhibition), Mastoparan PBMC (%)
# unit: % | format: bare number

For the compound shown here, CC[C@H](C)[C@H](N)C(=O)N[C@@H](CC(N)=O)C(=O)N[C@@H](CC(C)C)C(=O)N[C@@H](CCCCN)C(=O)N[C@@H](C)C(=O)N[C@@H](CC(C)C)C(=O)N[C@@H](C)C(=O)N[C@@H](CCC(N)=O)C(=O)N[C@@H](CC(C)C)C(=O)N[C@@H](C)C(=O)N[C@@H](CCCCN)C(=O)N[C@@H](CCCCN)C(=O)N[C@H](C(=O)N[C@@H](CC(C)C)C(N)=O)[C@@H](C)CC [Q8] , give the reported Average (percentage cell inhibition), Mastoparan PBMC.
5.553

====

Entries and their Average (percentage cell inhibition), Dmastoparan MDA-MB231 12.5uM values follow.
- Test system: MDA-MB-231 cells
Just the number please, in %, no unit attached.

CC[C@H](C)[C@H](N)C(=O)N[C@@H](CC(N)=O)C(=O)N[C@@H](CC(C)C)C(=O)N[C@@H](CCCCN)C(=O)N[C@@H](C)C(=O)N[C@@H](CC(C)C)C(=O)N[C@@H](C)C(=O)N[C@@H](Cc1ccc(O)cc1)C(=O)N[C@@H](CC(C)C)C(=O)N[C@@H](C)C(=O)N[C@@H](CCCCN)C(=O)N[C@@H](CCCCN)C(=O)N[C@H](C(=O)N[C@@H](CC(C)C)C(N)=O)[C@@H](C)CC [Y8]; 50.1841
CC[C@H](C)[C@H](N)C(=O)N[C@@H](CC(N)=O)C(=O)N[C@@H](CC(C)C)C(=O)N[C@@H](CCCCN)C(=O)N[C@@H](C)C(=O)N[C@@H](CC(C)C)C(=O)N[C@@H](C)C(=O)N[C@@H](C)C(=O)N[C@@H](CC(C)C)C(=O)NCC(=O)N[C@@H](CCCCN)C(=O)N[C@@H](CCCCN)C(=O)N[C@H](C(=O)N[C@@H](CC(C)C)C(N)=O)[C@@H](C)CC [G10]; 20.1107

Consider the additional compound presented here.
Request: Average (percentage cell inhibition), Dmastoparan MDA-MB231 12.5uM, test system MDA-MB-231 cells, entry CC[C@H](C)[C@H](N)C(=O)N[C@@H](CC(N)=O)C(=O)N[C@@H](CC(C)C)C(=O)N[C@@H](CCCCN)C(=O)N[C@@H](C)C(=O)N[C@@H](CC(C)C)C(=O)N[C@@H](C)C(=O)N[C@@H](C)C(=O)N[C@@H](CC(C)C)C(=O)N[C@@H](C)C(=O)N[C@H](C(=O)N[C@@H](CCCCN)C(=O)N[C@H](C(=O)N[C@@H](CC(C)C)C(N)=O)[C@@H](C)CC)[C@@H](C)CC [I11]
36.5354

====

Average (percentage cell inhibition), Dmastoparan MDA-MB231 12.5uM, MDA-MB-231 cells, per-entry values.
Numeric answer only, unit % assumed.

CC[C@H](C)[C@H](N)C(=O)N[C@@H](CC(N)=O)C(=O)N[C@@H](CC(C)C)C(=O)N[C@@H](CCCCN)C(=O)N[C@@H](C)C(=O)N[C@@H](CC(C)C)C(=O)N[C@@H](C)C(=O)N[C@@H](C)C(=O)N[C@@H](CC(C)C)C(=O)N[C@@H](C)C(=O)N[C@@H](CC(C)C)C(=O)N[C@@H](CCCCN)C(=O)N[C@H](C(=O)N[C@@H](CC(C)C)C(N)=O)[C@@H](C)CC; 59.9826

// below: Average (percentage cell inhibition), Dmastoparan MDA-MB231 12.5uM requested for another molecule
Recall the recorded Average (percentage cell inhibition), Dmastoparan MDA-MB231 12.5uM for CC[C@H](C)[C@H](N)C(=O)N[C@@H](CC(N)=O)C(=O)N[C@@H](CC(C)C)C(=O)N[C@@H](CCCCN)C(=O)N[C@@H](C)C(=O)N[C@@H](CC(C)C)C(=O)N[C@@H](C)C(=O)N[C@@H](C)C(=O)N[C@@H](CC(C)C)C(=O)N[C@@H](C)C(=O)N[C@@H](CCCCN)C(=O)N[C@@H](C)C(=O)N[C@H](C(=O)N[C@@H](CC(C)C)C(N)=O)[C@@H](C)CC with MDA-MB-231 cells and state it.
42.9356

====

- Tested on: MDA-MB-231 cells
Measured property: Average (percentage cell inhibition), Dmastoparan MDA-MB231 12.5uM (%)
Numbers only here, please. The scale is %.

Use the examples below as a reference point.
CC[C@H](C)[C@H](N)C(=O)N[C@@H](CC(N)=O)C(=O)N[C@@H](CC(C)C)C(=O)N[C@@H](CCCCN)C(=O)N[C@@H](C)C(=O)N[C@@H](CC(C)C)C(=O)N[C@@H](CCC(N)=O)C(=O)N[C@@H](C)C(=O)N[C@@H](CC(C)C)C(=O)N[C@@H](C)C(=O)N[C@@H](CCCCN)C(=O)N[C@@H](CCCCN)C(=O)N[C@H](C(=O)N[C@@H](CC(C)C)C(N)=O)[C@@H](C)CC; 23.653
CC[C@H](C)[C@H](N)C(=O)N[C@@H](CC(N)=O)C(=O)N[C@@H](Cc1c[nH]c2ccccc12)C(=O)N[C@@H](CCCCN)C(=O)N[C@@H](C)C(=O)N[C@@H](CC(C)C)C(=O)N[C@@H](C)C(=O)N[C@@H](C)C(=O)N[C@@H](CC(C)C)C(=O)N[C@@H](C)C(=O)N[C@@H](CCCCN)C(=O)N[C@@H](CCCCN)C(=O)N[C@H](C(=O)N[C@@H](CC(C)C)C(N)=O)[C@@H](C)CC; 65.1242

Could you now look at the following compound, please?
Value lookup for Average (percentage cell inhibition), Dmastoparan MDA-MB231 12.5uM; key = CC[C@H](C)[C@H](N)C(=O)N[C@@H](CC(N)=O)C(=O)N[C@@H](CC(C)C)C(=O)N[C@@H](CCCCN)C(=O)N[C@@H](C)C(=O)N[C@@H](CC(C)C)C(=O)N[C@@H](C)C(=O)N[C@@H](C)C(=O)N[C@@H](CC(C)C)C(=O)N[C@@H](C)C(=O)N[C@@H](CCCCN)C(=O)N[C@@H](Cc1c[nH]c2ccccc12)C(=O)N[C@H](C(=O)N[C@@H](CC(C)C)C(N)=O)[C@@H](C)CC
64.637

====

This section presents compounds with their documented Average (percentage cell inhibition), Dmastoparan MDA-MB231 12.5uM values.
- System: MDA-MB-231 cells
Use % as the unit, but write only the number.

Example compounds with recorded Average (percentage cell inhibition), Dmastoparan MDA-MB231 12.5uM:
CC[C@H](C)[C@H](N)C(=O)N[C@@H](CC(N)=O)C(=O)N[C@@H](CC(C)C)C(=O)N[C@@H](CCCCN)C(=O)N[C@@H](C)C(=O)N[C@@H](CC(C)C)C(=O)N[C@@H](C)C(=O)N[C@@H](C)C(=O)N[C@@H](CO)C(=O)N[C@@H](C)C(=O)N[C@@H](CCCCN)C(=O)N[C@@H](CCCCN)C(=O)N[C@H](C(=O)N[C@@H](CC(C)C)C(N)=O)[C@@H](C)CC; 27.2293
CC[C@H](C)[C@H](N)C(=O)N[C@@H](CC(N)=O)C(=O)N[C@@H](CC(C)C)C(=O)N[C@@H](C)C(=O)N[C@@H](C)C(=O)N[C@@H](CC(C)C)C(=O)N[C@@H](C)C(=O)N[C@@H](C)C(=O)N[C@@H](CC(C)C)C(=O)N[C@@H](C)C(=O)N[C@@H](CCCCN)C(=O)N[C@@H](CCCCN)C(=O)N[C@H](C(=O)N[C@@H](CC(C)C)C(N)=O)[C@@H](C)CC; 36.5883

Next:
Given CC[C@H](C)[C@H](N)C(=O)N[C@@H](CC(N)=O)C(=O)N[C@@H](CC(C)C)C(=O)N[C@@H](CCCCN)C(=O)N[C@@H](Cc1ccc(O)cc1)C(=O)N[C@@H](CC(C)C)C(=O)N[C@@H](C)C(=O)N[C@@H](C)C(=O)N[C@@H](CC(C)C)C(=O)N[C@@H](C)C(=O)N[C@@H](CCCCN)C(=O)N[C@@H](CCCCN)C(=O)N[C@H](C(=O)N[C@@H](CC(C)C)C(N)=O)[C@@H](C)CC , state its recorded Average (percentage cell inhibition), Dmastoparan MDA-MB231 12.5uM.
43.7779

====

The entries below are paired with their reported Average (percentage cell inhibition), Mastoparan PBMC.
- System: PBMC
- Test settings: 12.5 µM
Quick reminder: number only, in %, skip the unit.

Some solved entries appear below for comparison.
CC[C@H](C)[C@H](N)C(=O)N[C@@H](CC(N)=O)C(=O)N[C@@H](CC(C)C)C(=O)N[C@@H](CCCCN)C(=O)N[C@@H](C)C(=O)N[C@@H](CC(C)C)C(=O)N[C@@H](C)C(=O)N[C@@H](C)C(=O)N[C@@H](CC(C)C)C(=O)N[C@@H](C)C(=O)N[C@@H](CCCCN)C(=O)N[C@@H](CCCCN)C(=O)N[C@H](C(=O)N[C@@H](Cc1c[nH]cn1)C(N)=O)[C@@H](C)CC; -11.4515
CC[C@H](C)[C@H](N)C(=O)N[C@@H](CC(N)=O)C(=O)N[C@@H](CC(C)C)C(=O)N[C@@H](CCCCN)C(=O)N[C@@H](C)C(=O)N[C@@H](CC(C)C)C(=O)N[C@@H](C)C(=O)N[C@@H](C)C(=O)N[C@@H](CC(C)C)C(=O)N[C@@H](C)C(=O)N[C@@H](CCCCN)C(=O)N[C@@H](CCCCN)C(=O)N[C@@H](CCCCN)C(=O)N[C@@H](CC(C)C)C(N)=O; 5
CC[C@H](C)[C@H](N)C(=O)N[C@@H](CC(N)=O)C(=O)N[C@@H](Cc1c[nH]c2ccccc12)C(=O)N[C@@H](CCCCN)C(=O)N[C@@H](C)C(=O)N[C@@H](CC(C)C)C(=O)N[C@@H](C)C(=O)N[C@@H](C)C(=O)N[C@@H](CC(C)C)C(=O)N[C@@H](C)C(=O)N[C@@H](CCCCN)C(=O)N[C@@H](CCCCN)C(=O)N[C@H](C(=O)N[C@@H](CC(C)C)C(N)=O)[C@@H](C)CC; 22.6054

Value lookup for Average (percentage cell inhibition), Mastoparan PBMC; key = CC[C@H](C)[C@H](N)C(=O)N[C@@H](CC(N)=O)C(=O)N[C@@H](CC(C)C)C(=O)N[C@H](C(=O)N[C@@H](C)C(=O)N[C@@H](CC(C)C)C(=O)N[C@@H](C)C(=O)N[C@@H](C)C(=O)N[C@@H](CC(C)C)C(=O)N[C@@H](C)C(=O)N[C@@H](CCCCN)C(=O)N[C@@H](CCCCN)C(=O)N[C@H](C(=O)N[C@@H](CC(C)C)C(N)=O)[C@@H](C)CC)[C@@H](C)O
12.9948

Queued: CC[C@H](C)[C@H](N)C(=O)N[C@@H](CC(N)=O)C(=O)N[C@@H](CC(C)C)C(=O)N[C@@H](CCCCN)C(=O)N[C@@H](CC(N)=O)C(=O)N[C@@H](CC(C)C)C(=O)N[C@@H](C)C(=O)N[C@@H](C)C(=O)N[C@@H](CC(C)C)C(=O)N[C@@H](C)C(=O)N[C@@H](CCCCN)C(=O)N[C@@H](CCCCN)C(=O)N[C@H](C(=O)N[C@@H](CC(C)C)C(N)=O)[C@@H](C)CC
6.591
